For each of the molecules below, state its composite z-score.
System: wheat germ agglutinin (Triticum aestivum), Alexa647-labelled
Experiment: Alexa647-WGA lectin binding to printed small molecules – biochemical, small-molecule microarray, 635/667 nm fluorescence, artefact control for SMM control-protein annotation, profiling panel (AID 1140);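 further: score merges 667 nm feature emission with signal to noise over triplicate slides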
Conditions: WGA-A647 binding, 635 nm fluorescence, higher = more signal
Numbers only.

Look over these answered cases.
COCCn1c(C(=O)N(C)C)cc2c1C[C@H]1CN(C(=O)c3ccccc3)[C@@](Cc3ccc(OC)cc3)(C(=O)OC)[C@@H]21; 0.94
CCCCC(O)C1C=CC2C(=O)N(c3ccccc3)C(=O)C2N1Nc1ccccc1 (configuration not stated); 1.17
C=C(COC)C(=O)CC[C@@H](OC(=O)c1ccccc1-c1ccccc1C(=O)O)c1ccc(OCCO)cc1; 0.595
CC(C)(C)OC(=O)CC[C@@]1(C(=O)NCCN2CCOCC2)N=C(c2ccc(OCCCO)cc2)O[C@@H]1c1ccccc1CN=[N+]=[N-]; 0.608
COc1ccc([Si](C)(C)[C@@H]2[C@@H](CC(=O)N3CCC[C@H]3CO)O[C@]3(C(=O)N(Cc4cccc(N5CCCCC5=O)c4)c4ccccc43)[C@H]2C)cc1; 0.307
CCCN1C(=O)[C@]2(CCC(=O)OC(C)(C)C)N=C(c3ccc(OCCCO)cc3)O[C@@H]2c2ccccc21; 0.0961

Alright, here's another molecule for you.
Q: Return composite z-score for the following molecule: COc1ccc([Si](C)(C)[C@@H]2[C@@H](CC(=O)N3CCC[C@H]3CO)O[C@]3(C(=O)N(Cc4ccc(N5CCOC5=O)cc4)c4ccccc43)[C@H]2C)cc1
Ans: 0.471
